- MEASUREMENT_NOTES: in vitro
- MEASUREMENT_SETUP: human, 20% fecal homogenate (supernatant), anaerobic, pH 6.8
Numbered stars: 1 amine (or outer) side, 2 acyl side, 3 side chain; on linkers, the order of the positions; unused ones are H or OH. Bridge positions count the residues as written; N and C are the ends. Square brackets hold non-standard residues; d marks the D form. Peptide text beside a SMILES is read from it. X2 = CCCc1cccc2c(C[C@H](N[*:1])C(=O)[*:2])c[nH]c12; Trp(7-Me) = Cc1cccc2c(C[C@H](N)C(=O)O)c[nH]c12; 2Nal = N[C@@H](Cc1ccc2ccccc2c1)C(=O)O; AEF = NCCOc1ccc(C[C@H](N)C(=O)O)cc1; Cit = NC(=O)NCCC[C@H](N)C(=O)O; Pen = CC(C)(S)[C@H](N)C(=O)O; αMeK = C[C@](N)(CCCCN)C(=O)O; Aib = CC(C)(N)C(=O)O; βAla = NCCC(=O)O
OBSERVABLE: half-life at 20 μM

Quick one: half-life at 20 μM for CC(=O)NCCCC[C@H](NC(=O)[C@](C)(CC(C)C)NC(=O)[C@H](Cc1ccc2ccccc2c1)NC(=O)[C@H](Cc1ccc(OCCN)cc1)NC(=O)[C@H]1NC(=O)[C@H](CCC(N)=O)NC(=O)[C@H](Cc2c[nH]c3c(C)cccc23)NC(=O)[C@H]([C@@H](C)O)NC(=O)[C@H](CC(N)=O)NC(=O)[C@@H](NC(C)=O)C(C)(C)SSC1(C)C)C(=O)N[C@H](Cc1ccccc1)C(=O)NCCC(N)=O [compound 213] ? > 24 h

Okay, and CCCc1cccc2c(C[C@@H]3NC(=O)[C@H]([C@@H](C)O)NC(=O)[C@H](CC(N)=O)NC(=O)[C@@H](NC(C)=O)C(C)(C)SSC(C)(C)[C@@H](C(=O)N[C@@H](Cc4ccc(OCCN)cc4)C(=O)N[C@@H](Cc4ccc5ccccc5c4)C(=O)N[C@@](C)(CCCCN)C(=O)N[C@@H](CCCCNC(C)=O)C(=O)N[C@@H](CC(N)=O)C(=O)N[C@H](CC(C)C)C(N)=O)NC(=O)[C@H](CCCCNC(C)=O)NC3=O)c[nH]c12 [compound 285] (Ac-[Pen]NT[X2]K(Ac)[Pen][AEF][2Nal][αMeK]K(Ac)N[dL]-NH2; disulfide 1-6) ? > 24 h

Okay, and CC(=O)NCCCC[C@@H]1NC(=O)[C@H](Cc2c[nH]c3c(C)cccc23)NC(=O)[C@H]([C@@H](C)O)NC(=O)[C@H](CC(N)=O)NC(=O)[C@@H](NC(C)=O)C(C)(C)SSC(C)(C)[C@@H](C(=O)N[C@@H](Cc2ccc(OCCN)cc2)C(=O)N[C@@H](Cc2ccc3ccccc3c2)C(=O)N[C@@](C)(CCCCN)C(=O)N[C@@H](CCCCNC(C)=O)C(=O)N[C@@H](CC(N)=O)C(=O)N(C)[C@@H](CCCNC(=N)N)C(N)=O)NC1=O [compound 246] ? > 24 h

Okay, and CC(=O)NCCCC[C@H](NC(=O)[C@](C)(CCCCN)NC(=O)[C@H](Cc1ccc2ccccc2c1)NC(=O)[C@H](Cc1ccc(OCCN)cc1)NC(=O)[C@H]1NC(=O)[C@H](CCCNC(N)=O)NC(=O)[C@H](Cc2c[nH]c3c(C)cccc23)NC(=O)[C@H]([C@@H](C)O)NC(=O)[C@H](CC(N)=O)NC(=O)[C@@H](NC(C)=O)C(C)(C)SSC1(C)C)C(=O)N[C@@H](CC(N)=O)C(=O)N[C@@H](Cc1ccc(O)cc1)C(N)=O [compound 266] (Ac-[Pen]NT[Trp(7-Me)][Cit][Pen][AEF][2Nal][αMeK]K(Ac)NY-NH2; disulfide 1-6) ? 16 h

Okay, and CC(=O)NCCCC[C@H](NC(=O)[C@](C)(CCCCN)NC(=O)[C@H](Cc1ccc2ccccc2c1)NC(=O)[C@H](Cc1ccc(OCCN)cc1)NC(=O)[C@H]1NC(=O)C(C)(C)NC(=O)[C@H](Cc2c[nH]c3c(C)cccc23)NC(=O)[C@H]([C@@H](C)O)NC(=O)[C@H](CC(N)=O)NC(=O)[C@@H](NC(C)=O)C(C)(C)SSC1(C)C)C(=O)N[C@@H](CC(N)=O)C(=O)NCCC(N)=O [compound 241] (Ac-[Pen]NT[Trp(7-Me)][Aib][Pen][AEF][2Nal][αMeK]K(Ac)N[βAla]-NH2; disulfide 1-6) ? > 24 h

Okay, and CC(=O)NCCCC[C@H](NC(=O)[C@](C)(CC(C)C)NC(=O)[C@H](Cc1ccc2ccccc2c1)NC(=O)[C@H](Cc1ccc(OCCN)cc1)NC(=O)[C@H]1NC(=O)[C@H](CCC(N)=O)NC(=O)[C@H](Cc2c[nH]c3c(C)cccc23)NC(=O)[C@H]([C@@H](C)O)NC(=O)[C@H](CC(N)=O)NC(=O)[C@@H](NC(C)=O)C(C)(C)SSC1(C)C)C(=O)N[C@H](C)C(=O)NCCC(N)=O [compound 209] ? > 24 h

Okay, and CC[C@H](C)[C@H](NC(=O)[C@H](CCCCNC(C)=O)NC(=O)[C@](C)(CC(C)C)NC(=O)[C@H](Cc1ccc2ccccc2c1)NC(=O)[C@H](Cc1ccc(OCCN)cc1)NC(=O)[C@H]1NC(=O)[C@H](CCC(N)=O)NC(=O)[C@H](Cc2c[nH]c3c(C)cccc23)NC(=O)[C@H]([C@@H](C)O)NC(=O)[C@H](CC(N)=O)NC(=O)[C@@H](NC(C)=O)C(C)(C)SSC1(C)C)C(=O)NCCC(N)=O [compound 216] ? > 24 h

Okay, and CC(=O)NCCCC[C@@H]1NC(=O)[C@H](Cc2c[nH]c3c(C)cccc23)NC(=O)[C@H]([C@@H](C)O)NC(=O)[C@H](CC(N)=O)NC(=O)[C@@H](NC(C)=O)C(C)(C)SSC(C)(C)[C@@H](C(=O)N[C@@H](Cc2ccc(OCCN)cc2)C(=O)N[C@@H](Cc2ccc3ccccc3c2)C(=O)N[C@@](C)(CCCCN)C(=O)N[C@@H](CCCCNC(C)=O)C(=O)N[C@@H](CC(N)=O)C(=O)N[C@H](CC(C)C)C(N)=O)NC1=O [compound 245] ? > 24 h

Okay, and CC(=O)NCCCC[C@H](NC(=O)[C@](C)(CCCCN)NC(=O)[C@H](Cc1ccc2ccccc2c1)NC(=O)[C@H](Cc1ccc(OCCN)cc1)NC(=O)[C@H]1NC(=O)[C@H](CCCNC(N)=O)NC(=O)[C@H](Cc2c[nH]c3c(C)cccc23)NC(=O)[C@H]([C@@H](C)O)NC(=O)[C@H](CC(N)=O)NC(=O)[C@@H](NC(C)=O)C(C)(C)SSC1(C)C)C(=O)N[C@@H](CC(N)=O)C(=O)N[C@H](C(N)=O)[C@@H](C)O [compound 262] (Ac-[Pen]NT[Trp(7-Me)][Cit][Pen][AEF][2Nal][αMeK]K(Ac)NT-NH2; disulfide 1-6) ? 15 h

Each recorded value in this set is attributed to patent US20260116921A1.
